The following sequences are listed with their measured PET hydrolysis values.
- Measurement description: PET hydrolysis, aromatic products released after 48 h (umol product/mg enzyme); higher = more PET depolymerization activity
- Settings: substrate: cryPow; 60 °C; pH 6.5

Worked cases, PET hydrolysis given:
STRNQEPTLQSIEAARGPYEIATQSVPPAVNTGFGGGTIYYPATTGAGKFGAVALSPGYMEKEYSFSWLGTRLASQGFVVFIINTQNSEEFPSARTDELLASLNYLTQTSEVRDRVDPNRLAVMGHSMGGGAALEAAEKNQSLRAVISMTPWNIKTTYSDIKTPTLIIGAQYDNIAPVHDHAQPSYASLPNDLAKSYLELRNGNHFSPNMENTAIARSSTVWLKRFVDGDTRYNKFICPGPTVGDEFNIVQSNCPIL [DP079]
< 3
GTTASATTVSGTQAAAAQEYRRGPDPTAQSVEAATGPFAIQQTSVPAGNGFGGGTIYYPTDTSQGTFGAIAISPGWTEDQSAIAWLGPKLASNGFVVMTINNNNAFLDFPDARGTQLLAALDSLTGQSPVAGRIDKNRLAVAGHSMGGGGALRAAATRPEIQAAIPLTPWHLNQDWSSVRVPTLIVGGETDIIASVGAHSEPFYESLTNAPERAYLEMEGQGHFVTNSANPTVGRYVLSWLKRYVDNDTRYEQFLCPAPAPSSVISEYRDSCPGS [DP018]
< 3
DQIGQAPTASNITGNGSFATTSASISSTVSGFGGGRVYYPTAAGTYPVIAISPGFTATWSSLAWIGPRLSSWGFVVVGIETNSIYDQPASRGNQLLAALNWAVNSSPTAVRSHVDGSRRGVAGHSMGGGGTLEALAADTTGLVKAGVPLAPWNTDKTWNNVSEPVLIVGGQADTVAPVASHSIPFYNTLAGPKTYVELTGQSHFFPQTTNATASRALVAWFKRWVSQDSRFTPFTCGFSGVAVSDFRSNAC [ESM082]
46
QPTLESLGNPGPYQVAYYDQLPEVDEYGAATLYFPANRGTDFGGVAIAPGFIEQQENIEWWGRHLASYGFAVLVLDTNNPRDDPQVRSEALLAALDVIRGEGARSGSPIRGKILNDRMAVMGHSMGGGGTLLAANRASDQLKAIIPFTPWLPNADFSSVAVPTLVLAGEVDRIASVAEHAWPHFQTLPEGIPRMYVEIAGGNHFIANSTTDQERLNPNIDVHDLVGALGVAWLKYFVDGDEDYRDLIYGELPAEQRARLSRFEFVQ [TEP107]
< 3

Now for a further sequence.
Task item: I'd like to know its PET hydrolysis. The sequence in question is ADNPYQRGPDPTRASVAAVNGPFVNTSVSVPTGYGFNGGRIYYPTDTSQGTFGAIAISPGYTALFSAELAWMGPWLASHGFVVIGIETNSRNDFDTARGTQLLAALDYLTQQSPVRDRVDPNRLAVSGHSMGGGGALSAAIRRSSLKAAVGITPYSPSQNLANDRVPTMVISGQADTVVTPSYALGLYNSLPASTESVYLEVAGGDHGFMVGRSNPVLIRTMLPFLKMFVDNDSRYSQFLCPLLDSSGVVTYRSTCPLLPTNPTTPPPTGTPTPTPTSTPTPTPTPTTPPPSGSANE [ESM091]
Reply: < 3

---

- Measurement description: melting temperature (DSF); higher = more thermostable
The following sequences are listed with their measured melting temperature values.
Give the number; C is assumed, so skip it.

QYQKGPDPTVSALERTGSFATRTTTVSRTSASGFGGGTIYYPTASGSYGAIAISPGFTAYQSSISWMGTRLASHGFVVITIDTITTSDQPDSRGRQLKAALDKVVSLSRSSSSPIYNKVDTTRLAVAGHSMGGGGTLAAARDYPSLKAAVPLAPWHTTKSWSRVTVPTLIIGGSTDTIASVGLHSIPFYTSLPSSTNKAYMELSGEGHFFPQTSSNYPLVGRYMISWFKRFVDGDSRYSPFLCGAQHQADLGLFSDISDYRENCPY [ESM169]
61.3
GQAPTTAAQVRASAFAKGPDPTEQTIKAQRGPFQIKQLSVAAQSGRGFNRGTIYYPTDTGQGTYGAIAVIPGFLEPEFITSWYGPTLASYGFVVMTLEPFAITDFPDPRSNQLLAAVDWLAADSPVKAQVDPNRLAVMGHSMGGGGALLAASKRPSLKAAVPLAPWNLYADFAGVTVPTLVIGADNDFIAPVGMHADPMYASIKASPNEGYLKLKNADHFTVNSYSATLTKFTVSWMKRYVDEDTRYTQFLCPAPQPDPSFASFQMTCPS [TEP173]
41.2
FSATGPSAPCSNCTRGPAPTVTALKASTGPFTTAKFSVSGFLKGYGDSTVYYPTNTTGKMGAIAVIPGYLSYESSIDWWGPRLASHGFVVMTMNTKTIYDQPDSRASQLSEALDYLIAQSKSSSSPLYNKIDSTRLGAIGWSMGGGGSLKLATQRSINAIIPQAPWYLGSSAFSGIKTPTLILACSADTVAPVAQHASPFYNQIPNSTPKAFLEIYGGSHFCANSGYPNQDMLGMYGIAWMKRFIDFDSRYSQFLCGPNHESDYAISDYRENCPY [ESM055]
55.3
ADNPYQRGPEPTTSSVAATRGTFATAEVSVSKGNGFGGGKIYYPTDTSKGTFGAIAVVPGYTATWAAEGAWMGPWLASFGFVVIGIDTNSRTDYDTARGTQLLAALDYLTQKSSVRSRVDVKRLSVMGHSMGGGGAMYAALHRPSLWAAVGNAPFSPSQNLKSDRVPTLLLAGQKDTTVTPSSVVGLYNGIPAATEKGYLELTGAAHNFPTRSNSVMMRKVVPWLKIFVDHDTRYGQFLCPSLKDTTGITSYRSTCPLTTAGQ [ESM078]
52

Now for a further sequence.
Task item: I'd like to know its melting temperature. The sequence in question is ADNPYQRGPDPTLASVSAQRGTFATAQVAVPAGDGFGGGMIYYPTDTSQGTFGAVAIVPGYTARFSVEEAWMGHWLASFGFVVIGVETNSTNDFDTARGTQLLAALDYLTQRSSVRDRVDASRQSVVGHSMGGGGALYAAGQRASLKAAVGLAPYKPSGNPTNVRVPTMIISGQNDTVVTPSYATGLYNTLPATTESAYMEFTGADHLFPTRANTLEMRILIPWLKIFVDSDNRYSQFLCPLQDSTGIRGYRSTCPFLPNPTTSPSTTAPTTPPTTPPTTPPTGACSATYRTVNSWPGGFQGEVTVSAGSTPVDGWAVRWTLASGQAVTQVWNGALSVSGSAVTVRNTTYNGSLGANASTTFGFLASGSPTPVSLTCTSP [ESM033]
Reply: 53.8

---

- Measurement description: PET hydrolysis, aromatic products released after 48 h (umol product/mg enzyme); higher = more PET depolymerization activity
- Settings: substrate: cryPow; 60 °C; pH 6.5
Assay readout: PET hydrolysis
Number, no unit, nothing else.

NPYERGPDPTTASIEASRGSFATSTVTVSRLAVSGFGGGTIYYPTTTTAGTFGAISIAPGFTATQSSMAWLGPRLASQGFVVFTIDTITTSDQPDSRGRQLLASLDYLTQQSSVRSRIDSSRLGVVGHSMGGGGTLEAARSRPSLQAAVPLTGWNLTKNWSTLRVPTLVVGAQSDTIAPVASHSIPFYTSLPSTLDRAYLELRGASHFAPNTSNTTIAKYTLSWLKRFIDNDTRYEQFLCPIPSSSLSISDYRGNCPHNG [ESM167]
20

Now for a further sequence.
Task item: I'd like to know its PET hydrolysis. The sequence in question is ASPYQRGPNPTAASIAATTGPFAIASITVPRGNGFGGGVIYYPTSTSQGTFGGIAISPGLNGTWSGISWLGPRLASQGFVVFGIETNNLNDSPTSRGTQLLAALDYLTQRSSVRSRLDANRLAVMGHSMGGGGALDAALRRPTLKATIGNAPHLPSGSLANDRVPTLIYAMQNDTLVTPARLTSLYNTIPAATERAYIEVTGAGHNYIGQPSTTLARTMIPWLKIFIDSDTRYAPFLCPLNDRSGIRQYRNSCPLI [ESM128]
Reply: 18.5

---

- Measurement description: PET hydrolysis, aromatic products released after 48 h (umol product/mg enzyme); higher = more PET depolymerization activity
- Settings: substrate: cryPow; 60 °C; pH 7.5
Assay readout: PET hydrolysis

Worked cases, PET hydrolysis given:
ADNPYERGPNPTQASIAASRGTFATAEVSVGGGNGFAAAKIYYPTDTSQGTFGAIAIVPGYTATWAAEGAWMGPWLASFGFVVIGIDTLSRNDFDTARGTQLLAALDYLTQRSSVRSRVDASRLAVMGHSMGGGGAISAALRRPSLKAAVGLAPFSPSQGTSGMRVPSMLLAGQRDGTVTPSSVRNLYNAIPATTEKAYLELTGAGHGFPTSANSVMMRKVIPWLKIFVDQDTRYQQFLCPLVDWTGITSYQSSCPLIPGGSTGTTYNLVNSSGKCADVNAASQVNGAALLLWTCHTNPNQRWTETSAKELRVYDNPKCMDAGAAQQGTRVTINSCSGGGSQKWTVNANGTVTNDLSGRCLGAAGGATTDNTPLVVASCDGSPGQQWTKQS [TEP093]
7
APPARVAALATTAYQRGPAPTLSGVRAALGPFSYSTASVSAAATGYTFGGGTVYYPDDTSQGTFGGIAVTPGYTGTEGSIAWLGPRLASQGFVVITIATKSLYDQPTARGQQLLAALDYLKTYSPAAVRQRLDPQRLAVSGHSMGGGGALYAVWSRPSLKAAVPLAPYHTIKNWSAITVPTLIEAGTADTVTPVGTFAEPIYQSLTGASERAYAEVAGANHLTFTAENPLIGGLEVAWMKRFVDDDARYDQFLCPAPTDPGLTEYRDSCPTS [TEP101]
7.5
ADNPYQRGPNPTAASIAATTGPFAIASVSVARGNGFGGGVIYYPTDTSQGTFGAIAISPGLNGTWPGIAWLGPRLASQGFVVFGIETNNLNDSPTSRGTQLLAALDYLTQRSSVRTRVDATRLAVAGHSMGGGGALDAALRRPSLQAAIGNAPYLPSGNLSTDRVPTLIYAMQNDTLVPPSRLTTMYNTIPATTERGYIQITGAGHNYIGQPSTNLARTMIPWFKIFIDNDTRFSQFLCPLSNMSGISQYRNSCPLI [ESM159]
13

Task item: I'd like to know its PET hydrolysis. The sequence in question is ETEYRKGPDPTEATVTAALGPFATASVSVPSSVAGFGGGVIHYPTDTSQGTFGAVAVAPGFLGSSANYAWMGPRLASQGFVVFLINTDSRLDQPPSRGDQLLAALDYLVTSSSVRARIDASRLAVAGHSMGGGGTLEAATDRPGLQAAIPLQPWHTVKSWPNVQVPTLIIGAENDTTAPVASHAEPFYVSIPAAAEKAYLELNNAEHRVGTAGDTTQAKFMIVWLKRYVDNDTRYEQFICPPPPAPSSEIQEYRNTCPG [TEP171]
Reply: < 3

Task item: I'd like to know its PET hydrolysis. The sequence in question is ADNPYQRGPDPTPALVASVNGPFATASVSVPAGYGFGGGMIYYPTDTSQGTFGGIAISPGYTALFSAELAWMGPWLASHGFVVIGIETNNRNDFDEARGTQLLAALDYLTQQSPVRNRVDPNRLAVAGHSMGGGGALNAAIRRPSLKAAVGLAPFSPSSNLANDRVPTMVFSGQQDTVVTPSYVTGLYNSLPSTTQSAYLEIAGGDHGFPVGRPNQVMIRTMLPFVKIFVDYDTRYSPFLCPLSDTSGVVTYRSTCPLTPPGLPTTPPTTPPTTVPTSPPTGGPTTPPTTPSQPGGACTATYRTVNSWPGGFQGEVTVTAGNSAINGWTVRWTLDSGQAITQVWNGEVSTSGSTVSVRNAPYNGSLPPSGSTTFGFLSSGSPSSPSLTCTSP [DP059]
Reply: 19.5
